Value source: patent US6710060B2

Field: melting point. Provide a value for each of the molecules that follow.

INPUT: Reported melting point, molecule CC(C)Oc1ccc(N(C)CCC2(O)CCN(Cc3ccc(Br)cc3)CC2)cc1 [Example 73] : ____
OUTPUT: 104.3 to 105 °C

INPUT: Name the recorded melting point for COc1cccc(CN2CCC(O)(CCN(C)c3ccc(OC(C)C)cc3)CC2)c1 [Example 77] .
OUTPUT: 45.1 to 46.5 °C

INPUT: Report melting point for CCCCOc1ccc(N(C)CCC2(O)CCN(CC(O)c3ccccc3)CC2)cc1 (stereo not shown) [Example 54] please.
OUTPUT: 104 to 104.8 °C

INPUT: Which melting point is reported for this molecule? CCOC(=O)c1ccc(CN2CCC(O)(CCN(C)c3ccc(OC(C)C)cc3)CC2)cc1 [Example 106]
OUTPUT: 50.3 to 51.6 °C

====

# System: isolated cardiac muscle cells
# Protocol: Suppression activity of veratrine-induced contracture of isolated cardiac muscle
# Format: cell-based
# Condition Description: Cardiac muscle cell, 5 min; rat isolated cardiac muscle cells, veratrine 100 gg/mL, 5 minutes after addition, probit analysis; read-out: IC50 (concentration of the test compound when half of the cells were contracted)
Where a name gives a salt, the structure may show the parent alone.
Experimental Readout: IC50

INPUT: Which IC50 reading was recorded for the compound CCCCOc1ccc(N(C)CC2(O)CCN(Cc3ccccc3)CC2)cc1 [Example 210, monomaleate] ?
OUTPUT: 900 nM

INPUT: What does the record list as IC50 for CCCCOc1ccc(N(C)CCC2(O)CCN(CCc3ccc(F)cc3)CC2)cc1 [Example 176, dihydrochloride] ?
OUTPUT: 900 nM

INPUT: # query: IC50 of entry CC(C)Oc1ccc(N(C)CCC2(O)CCN(Cc3ccc(OC(F)(F)F)cc3)CC2)cc1 [Example 236, dihydrochloride]
OUTPUT: 300 nM

INPUT: Would you mind telling me what IC50 value was observed for CCCCOc1ccc(N(C)CCC2(O)CCN(Cc3ccccc3)CC2)cc1 [Example 146, dihydrochloride] ?
OUTPUT: 1200 nM

INPUT: Entry CC(C)Oc1ccc(N(C)CCC2(O)CCN(Cc3ccc(Br)cc3F)CC2)cc1 [Example 240, dihydrochloride] : reported IC50 = ?
OUTPUT: 700 nM

INPUT: # IC50 lookup, item CC(C)Oc1ccc(N(C)CCC2(O)CCN(Cc3ccc(C(F)(F)F)cc3)CC2)cc1 [Example 221, dihydrochloride]
OUTPUT: 300 nM

INPUT: Fill in the blank: the reported IC50 of CCCCOc1ccc(N(C)CCC2(O)CCN(CCc3ccc(F)cc3F)CC2)cc1 [Example 183, dihydrochloride] is ____.
OUTPUT: 1000 nM

INPUT: So what's the measured IC50 for this one? CC(C)Oc1ccc(N(C)CCC2(O)CCN(Cc3ccc(Br)cc3)CC2)cc1 [Example 220, dihydrochloride]
OUTPUT: 700 nM

INPUT: I am curious: what IC50 value has been reported for CC(C)Oc1ccc(N(C)CCC2(O)CCN(C(c3ccccc3)c3ccccc3)CC2)cc1 [Example 278, dihydrochloride] ?
OUTPUT: 300 nM

====

Where a name gives a salt, the structure may show the parent alone.
Experimental Readout: melting point

INPUT: Fill in the blank: the reported melting point of CCCCOc1ccc(N(C)CCC2(O)CCN(CCc3ccc(F)cc3)CC2)cc1 (as salt: hydrochloride) [Example 176, dihydrochloride] is ____.
OUTPUT: 207 °C (dec.)

INPUT: Requested field: melting point. Item: CCCCOc1ccc(N(C)CCC2(O)CCN(Cc3ccc(Cl)cc3)CC2)cc1
OUTPUT: 67.7 to 68.3 °C

INPUT: Fill blank: measured melting point of the compound CC(C)Oc1ccc(N(C)CCC2(O)CCN(Cc3ccc(C(F)(F)F)cc3)CC2)cc1 (as salt: hydrochloride) [Example 221, dihydrochloride] is ____.
OUTPUT: 241.2 to 242.6 °C

INPUT: Please give the measured melting point for this compound: CN(CCC1(O)CCN(Cc2ccccc2)CC1)c1ccc(OC2CCC2)cc1
OUTPUT: 68.6 to 69.8 °C

INPUT: Requested field: melting point. Item: CCCCOc1ccc(N(C)CCC2(O)CCN(CC(O)c3ccc(F)cc3)CC2)cc1 (centres unmarked) [Example 55]
OUTPUT: 92.8 to 94.5 °C
